test system: ASPC-1 tumor-bearing mice; assay: Biodistribution of radionuclide labeled complexes in ASPC-1 tumor-bearing mice; type: in vivo, BALB/c nude mice; settings: Tumor, 24 h
Property Measured: % ID/g (24 h) Tumor (% ID/g)
Give bare numbers, in % ID/g.

Reference set (5 entries):
| Compound | System Name | Measure Unit | % ID/g (24 h) Tumor |
| --- | --- | --- | --- |
| COc1cccc(OC)c1-c1cc(C(=O)NC2(C(=O)O)C3CC4CC(C3)CC2C4)nn1-c1ccc(C(=O)N(C)CCCN(C)CCCN(C)C(=O)CN2CCN(CC(=O)[O-])CCN(CC(=O)[O-])CCN(CC(=O)[O-])CC2)cc1C(C)C.[177Lu+3] (stereo not shown) [^177Lu-C-2, reference compound] | ASPC-1 tumor-bearing mice | % ID/g | 12.6 |
| COc1cccc(OC)c1-c1cc(C(=O)NC2(C(=O)O)C3CC4CC(C3)CC2C4)nn1-c1ccc(NC(=O)CCCN(C)CCCN(C)C(=O)CN2CCN(CC(=O)[O-])CCN(CC(=O)[O-])CCN(CC(=O)[O-])CC2)cc1C(C)C.[177Lu+3] (stereo not shown) [^177Lu-I-5] | ASPC-1 tumor-bearing mice | % ID/g | 36.67 |
| COc1cccc(OC)c1-c1cc(C(=O)NC2(C(=O)O)C3CC4CC(C3)CC2C4)nn1-c1ccc(N(C)CCCN(C)CCCN(C)C(=O)CN2CCN(CC(=O)[O-])CCN(CC(=O)[O-])CCN(CC(=O)[O-])CC2)cc1C(C)C.[177Lu+3] (stereo not shown) [^177Lu-I-1] | ASPC-1 tumor-bearing mice | % ID/g | 22.56 |
| COc1cccc(OC)c1-c1cc(C(=O)NC2(C(=O)O)C3CC4CC(C3)CC2C4)nn1-c1ccc(NCCOCCOCCNC(=O)CN2CCN(CC(=O)[O-])CCN(CC(=O)[O-])CCN(CC(=O)[O-])CC2)cc1C(C)C.[177Lu+3] (stereo not shown) [^177Lu-I-10] | ASPC-1 tumor-bearing mice | % ID/g | 12.27 |
| COc1cccc(OC)c1-c1cc(C(=O)NC2(C(=O)O)C3CC4CC(C3)CC2C4)nn1-c1ccc(OCCCN(C)CCCN(C)C(=O)CN2CCN(CC(=O)[O-])CCN(CC(=O)[O-])CCN(CC(=O)[O-])CC2)cc1C(C)C.[177Lu+3] (stereo not shown) [^177Lu-I-7] | ASPC-1 tumor-bearing mice | % ID/g | 22.83 |

State the recorded % ID/g (24 h) Tumor for every item in the following list.
1. COc1cccc(OC)c1-c1cc(C(=O)NC2(C(=O)O)C3CC4CC(C3)CC2C4)nn1-c1ccc(SCCCN(C)CCCN(C)C(=O)CN2CCN(CC(=O)[O-])CCN(CC(=O)[O-])CCN(CC(=O)[O-])CC2)cc1C(C)C.[177Lu+3] (stereo not shown) [^177Lu-I-8]
2. COc1cccc(OC)c1-c1cc(C(=O)NC2(C(=O)O)C3CC4CC(C3)CC2C4)nn1-c1ccc(NCCCN(C)CCCNC(=O)CN2CCN(CC(=O)[O-])CCN(CC(=O)[O-])CCN(CC(=O)[O-])CC2)cc1C(C)C.[177Lu+3] (stereo not shown) [^177Lu-I-2]

output:
1: 26.12; 2: 25.61

All values here come from patent US20240287046A1.
